The measurements presented in this section are drawn from patent US8835632B2.

Quick list: Emission energy Eem Exp per entry.
assay: Absorption and fluorescence spectra, extinction coefficient, fluorescence quantum yield; assay type: physicochemical; conditions: MeOH
Hi! Could you send only the number? It should be in eV, unit omitted.

Consider the compound CCN1C(=O)\C(=C/C=C/C=C2/N(C)c3ccccc3C2(C)C)C(O)N(CC)C1=S (stereo not shown) [I-TBA, reference compound] and give its measured Emission energy Eem Exp.
2.056

----------
assay: Absorption and fluorescence spectra, extinction coefficient, fluorescence quantum yield; assay type: physicochemical; settings: Butanol (BuOH)
OUTCOME_MEASURE: Emission λmax

Past entries and their recorded results:
MOLECULE: CCn1c(O)c(/C=C/C=C(\C#N)c2cc[n+]3c(c2)C(C)(C)c2ccccc2-3)c(=O)n(CC)c1=S
OUTCOME_MEASURE: Emission λmax
RESULT: 641 nm
--
MOLECULE: Cn1c(O)c(/C=C/C=C/c2cc[n+]3c(c2)C(C)(C)c2ccccc2-3)c(=O)n(C)c1=O
OUTCOME_MEASURE: Emission λmax
RESULT: 654 nm
--
MOLECULE: CCN1/C(=C(C#N)/C=C/C=C2/C(=O)c3ccccc3S2(=O)=O)Sc2ccccc21
OUTCOME_MEASURE: Emission λmax
RESULT: 599 nm
--
MOLECULE: CC1(C)c2ccccc2-[n+]2ccc(/C=C/C=C/C3=C(O)c4ccccc4S3(=O)=O)cc21
OUTCOME_MEASURE: Emission λmax
RESULT: 675 nm
--
MOLECULE: CN1/C(=C(C#N)/C=C/C=C2/C(=O)c3ccccc3S2(=O)=O)C(C)(C)c2ccccc21
OUTCOME_MEASURE: Emission λmax
RESULT: 594 nm
--
MOLECULE: Cn1c(O)c(/C=C/C=C(\C#N)c2cc[n+]3c(c2)C(C)(C)c2ccccc2-3)c(=O)n(C)c1=O
OUTCOME_MEASURE: Emission λmax
RESULT: 620 nm
--
MOLECULE: CC1(C)c2ccccc2-[n+]2ccc(/C(C#N)=C/C=C/C3=C(O)c4ccccc4S3(=O)=O)cc21
OUTCOME_MEASURE: Emission λmax
RESULT: 640 nm
--
MOLECULE: CCN1/C(=C/C=C/C=C2/C(=O)c3ccccc3S2(=O)=O)Sc2ccccc21 [S-SO, reference compound]
OUTCOME_MEASURE: Emission λmax
RESULT: 622 nm

Kindly review the next molecule as well.
Consider the molecule CN1/C(=C/C=C/C=C2/C(=O)c3ccccc3S2(=O)=O)C(C)(C)c2ccccc21 [I-SO, reference compound] and give its measured Emission λmax.
618 nm

----------
Quick list: Fluorescence quantum yield Φ per entry.
experiment: Absorption and fluorescence spectra, extinction coefficient, fluorescence quantum yield; format: physicochemical; conditions: Butanol (BuOH)

COMPOUND: CCn1c(O)c(/C=C/C=C(\C#N)c2cc[n+]3c(c2)C(C)(C)c2ccccc2-3)c(=O)n(CC)c1=S
OUTCOME_MEASURE: Fluorescence quantum yield Φ
RESULT: 0.33

Consider the compound CC1(C)c2ccccc2-[n+]2ccc(/C(C#N)=C/C=C/C3=C(O)c4ccccc4S3(=O)=O)cc21 and give its measured Fluorescence quantum yield Φ.
0.29

Consider the compound CCN1/C(=C/C=C/C=C2/C(=O)c3ccccc3S2(=O)=O)Sc2ccccc21 [S-SO, reference compound] and give its measured Fluorescence quantum yield Φ.
0.12

Consider the compound Cn1c(O)c(/C=C/C=C(\C#N)c2cc[n+]3c(c2)C(C)(C)c2ccccc2-3)c(=O)n(C)c1=O and give its measured Fluorescence quantum yield Φ.
0.25
